Cited source for all entries: the RepoRT retention time repository

- protocol_description: HILIC, Waters ACQUITY UPLC BEH Amide, 100 × 2.1 mm, 1.7 µm; A: water + 0.125% formic acid + 10 mM ammonium formate; B: 5% water + 95% acetonitrile + 0.125% formic acid + 10 mM ammonium formate; gradient (min/%B) 0/100 2/100 7.7/70 9.5/40 10.25/30 12.75/100 17/100
- condition_label: stereoisomer not certain
readout_name: LC retention time (min)

compound	LC retention time, min
O=C1c2c(O)cc(O)cc2OC(c2ccc(O)c(O)c2)C1O (centres undefined) [Taxifolin]	1.78
CCN(CC)CC1CCCCN1CC(=O)N1c2ccccc2C(=O)Nc2cccnc21 (centres undefined) [Otenzepad]	2.94
CC(C)=CCNc1ncnc2nc[nH]c12 [Isopentenyladenine]	1.81
O=C1C(CCC(O)c2ccc(F)cc2)C(c2ccc(O)cc2)N1c1ccc(F)cc1 (centres undefined) [Ezetimibe]	1.03
CN(C)c1ccc(N=Nc2ccccc2)cc1 [p-(Dimethylamino)azobenzene [methyl yellow]]	0.93

[a] CNC(Cc1ccc(O)cc1)C(=O)[O-] (centres undefined) [Methyltyrosinate]
[b] COc1ccccc1OCC(O)CN1CCN(CC(=O)Nc2c(C)cccc2C)CC1 (centres undefined) [Ranolazine]
Q: Please state the entry with greater LC retention time among a and b . Bench note: the answer is the label of the chosen record.
Result: a

[1] O=c1c(-c2ccccc2)c1-c1ccccc1 [Diphenylcyclopropenone]
[2] Cn1c(=O)c2[nH]cnc2n(C)c1=O [Theophylline]
Q: Of 1 and 2 , whose reported LC retention time is numerically smaller? Bench note: the answer is the label of the chosen record.
Result: 1
(1: 1.01 min, 2: 1.54 min)

[A] NC(=O)CCCCC1CCSS1 (centres undefined) [Lipoamide]
[B] CCC1OC(=O)C(C)C(OC2CC(C)(OC)C(O)C(C)O2)C(C)C(OC2OC(C)CC(N(C)C)C2O)C(C)(OC)CC(C)C(=O)C(C)C(O)C1(C)O (centres undefined) [Clarithromycin]
[C] CCC1(O)C(=O)OCc2c1cc1n(c2=O)Cc2cc3c(CN(C)C)c(O)ccc3nc2-1 (centres undefined) [Topotecan]
[D] OCC1OC(OC2C(O)OC(CO)C(O)C2O)C(O)C(O)C1O (stereo not drawn) [2-alpha-Mannobiose]
Q: Put the items in order so that reported LC retention time rises from first to last. Labels, requested order.
Result: A, B, C, D
(A: 1.25 min, B: 3 min, C: 5.72 min, D: 9.47 min)

[I] NC(=O)Cc1c[nH]c2ccccc12 [Indole-3-acetamide]
[II] O=c1[nH]cnc2c1ncn2C1CCC(CO)O1 (centres undefined) [2',3'-Dideoxyinosine]
[III] O=C1CCC(C(=O)N2CSCC2C(=O)O)N1 (centres undefined) [Pidotimod]
Q: Put the items in order so that reported LC retention time rises from first to last. Labels, requested order.
Result: I, II, III

----------
- protocol_description: HILIC, Waters ACQUITY UPLC BEH Amide, 100 × 2.1 mm, 1.7 µm; A: water + 0.125% formic acid + 10 mM ammonium formate; B: 5% water + 95% acetonitrile + 0.125% formic acid + 10 mM ammonium formate; gradient (min/%B) 0/100 2/100 7.7/70 9.5/40 10.25/30 12.75/100 17/100
- condition_label: stereoisomer not certain
readout_name: LC retention time (min)

Example molecules with recorded LC retention time:
molecule	LC retention time [min]
CN(CCOc1ccc(CC2SC(=O)NC2=O)cc1)c1ccccn1 (stereo not drawn) [Rosigltazone]	1.24
Nc1nnc(-c2cccc(Cl)c2Cl)c(N)n1 [Lamotrigine]	1.98

[P] CNC(=C[N+](=O)[O-])NCCSCc1csc(CN(C)C)n1 [Nizatidine]
[Q] CC(C)CC(NC(=O)CCC(N)C(=O)O)C(=O)O (stereo not drawn) [gamma-Glutamylleucine]
[R] CCc1ccc(CCOc2ccc(CC3SC(=O)NC3=O)cc2)nc1 (stereo not drawn) [Pioglitazone]
[S] CC(C)CC(=O)NCC(=O)O [N-Isovalerylglycine]
Q: Put the items in order so that reported LC retention time rises from first to last. Labels, requested order.
Result: R, S, P, Q
(R: 1.11 min, S: 2.94 min, P: 4.65 min, Q: 8.1 min)

[P] Cc1cc2nc3c(=O)[nH]c(=O)nc-3n(CC(O)C(O)C(O)CO)c2cc1C (stereo not drawn) [Riboflavin]
[Q] CCN1CCCC1CNC(=O)c1cc(S(=O)(=O)CC)c(N)cc1OC (stereo not drawn) [Amisulpride]
[R] CC(O)C(N)=O (stereo not drawn) [Lactamide]
[S] O=C(O)c1cccnc1 [Nicotinic acid]
Q: Put the items in order so that reported LC retention time rises from first to last. Labels, requested order.
Result: R, Q, S, P
(R: 1.74 min, Q: 2.76 min, S: 4.01 min, P: 6 min)
